# credit: patent US20180265572A1

# Tgt: human IGF-IR on cells (human, UniProt P08069 31-1367)
# Sequence (P08069 31-1367 limits assumed, form in doubt): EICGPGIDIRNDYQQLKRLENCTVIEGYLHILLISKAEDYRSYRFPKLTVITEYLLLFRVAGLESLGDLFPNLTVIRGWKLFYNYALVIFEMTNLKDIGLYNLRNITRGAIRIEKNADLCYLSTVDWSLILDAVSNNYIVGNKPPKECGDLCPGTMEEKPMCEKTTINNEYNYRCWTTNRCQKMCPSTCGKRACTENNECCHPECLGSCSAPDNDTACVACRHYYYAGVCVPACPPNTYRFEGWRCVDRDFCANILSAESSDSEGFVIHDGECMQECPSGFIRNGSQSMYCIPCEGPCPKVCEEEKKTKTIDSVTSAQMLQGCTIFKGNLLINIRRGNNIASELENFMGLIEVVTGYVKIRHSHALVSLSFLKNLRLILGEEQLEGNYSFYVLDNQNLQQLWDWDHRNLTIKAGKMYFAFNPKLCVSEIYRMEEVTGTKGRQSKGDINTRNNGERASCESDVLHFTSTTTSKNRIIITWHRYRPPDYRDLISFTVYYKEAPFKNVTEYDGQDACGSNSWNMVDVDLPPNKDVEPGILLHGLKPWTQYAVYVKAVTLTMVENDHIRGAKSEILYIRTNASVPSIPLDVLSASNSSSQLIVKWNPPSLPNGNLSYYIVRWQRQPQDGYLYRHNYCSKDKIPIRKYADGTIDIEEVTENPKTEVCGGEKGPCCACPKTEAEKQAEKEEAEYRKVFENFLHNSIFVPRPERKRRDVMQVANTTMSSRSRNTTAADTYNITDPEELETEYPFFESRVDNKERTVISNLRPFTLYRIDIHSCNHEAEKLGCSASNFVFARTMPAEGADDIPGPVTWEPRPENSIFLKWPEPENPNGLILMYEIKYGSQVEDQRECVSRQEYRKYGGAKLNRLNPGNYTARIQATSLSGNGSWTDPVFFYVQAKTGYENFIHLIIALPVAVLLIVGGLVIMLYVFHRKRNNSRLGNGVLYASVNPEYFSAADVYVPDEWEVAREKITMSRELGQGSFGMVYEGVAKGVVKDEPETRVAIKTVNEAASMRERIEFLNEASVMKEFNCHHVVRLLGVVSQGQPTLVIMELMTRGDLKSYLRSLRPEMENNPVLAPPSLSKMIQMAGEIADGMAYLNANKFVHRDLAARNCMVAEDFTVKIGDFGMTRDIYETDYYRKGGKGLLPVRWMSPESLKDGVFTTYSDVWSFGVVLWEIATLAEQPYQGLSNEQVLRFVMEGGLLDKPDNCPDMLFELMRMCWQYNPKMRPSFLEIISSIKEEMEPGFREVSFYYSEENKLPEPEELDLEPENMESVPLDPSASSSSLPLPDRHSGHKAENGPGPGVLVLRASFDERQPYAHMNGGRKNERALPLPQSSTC
# Procedure text: cell-based or functional assay
Recorded IC50, inhibition of proliferation of Rh41 cells (n=1) values for a group of binders are listed next.
Answer in nM, number only, no unit symbol.

# Binder, Value measured
rows = [
    ("AT580-PEG20-AT580 (designed binder, the two chains are joined by a 20 kDa PEG at position 98 (cysteine) of each; labelled with IRDye 800CW in the competition assay) MGVSDVPRDLEVVAATPTSLLISWSARLKVARYYRITYGETGGNSPVQEFTVPKNVYTATISGLKPGVDYTITVYAVTRFRDYQPISINYRTEIDKPCQ", 0.07),
    ("385A08-GS10 (SEQ ID NO: 22)-V2B, his-tagged (designed binder, also called 385A08-GS10-V2B; 385A08-GS10-V2B (Ser tail)) MGVSDVPRDLEVVAATPTSLLISWSARLKVARYYRITYGETGGNSPVQEFTVPKNVYTATISGLKPGVDYTITVYAVTRFRDYQPISINYRTEIDKGSGSGSGSGSGSGSGSGSGSVSDVPRDLEVVAATPTSLLISWRHPHFPTRYYRITYGETGGNSPVQEFTVPLQPPTATISGLKPGVDYTITVYAVTDGRNGRLLSIPISINYRTEIDKPSQHHHHHH", 27),
    ("385A08-Fn-V2B-Cys (designed binder) single chain: MGVSDVPRDLEVVAATPTSLLISWSARLKVARYYRITYGETGGNSPVQEFTVPKNVYTATISGLKPGVDYTITVYAVTRFRDYQPISINYRTEIDKPSTSTSTVSDVPRDLEVVAATPTSLLISWRHPHFPTRYYRITYGETGGNSPVQEFTVPLQPPTATISGLKPGVDYTITVYAVTDGRNGRLLSIPISINYRTEIDKPCQHHHHHH", 33),
]

## Task Fill blank: measured IC50, inhibition of proliferation of Rh41 cells (n=1) of the binder 385A08-GS5-V2B (designed binder, also called 385A08-GS5-V2B (Ser tail)) single chain: MGVSDVPRDLEVVAATPTSLLISWSARLKVARYYRITYGETGGNSPVQEFTVPKNVYTATISGLKPGVDYTITVYAVTRFRDYQPISINYRTEIDKGSGSGSGSGSVSDVPRDLEVVAATPTSLLISWRHPHFPTRYYRITYGETGGNSPVQEFTVPLQPPTATISGLKPGVDYTITVYAVTDGRNGRLLSIPISINYRTEIDKPSQHHHHHH is ____.
## Result 40

## Task Reported IC50, inhibition of proliferation of Rh41 cells (n=1) for V2B-Fn-385A08-Cys (designed binder) single chain: MGVSDVPRDLEVVAATPTSLLISWRHPHFPTRYYRITYGETGGNSPVQEFTVPLQPPTATISGLKPGVDYTITVYAVTDGRNGRLLSIPISINYRTEIDKPSTSTSTVSDVPRDLEVVAATPTSLLISWSARLKVARYYRITYGETGGNSPVQEFTVPKNVYTATISGLKPGVDYTITVYAVTRFRDYQPISINYRTEIDKPCQHHHHHH : what is it?
## Result 6

## Task Sample 385A08-Fn-V2B (non pegylated, his-tagged version) (designed binder, also called 385A08-Fn-V2B (Ser tail); 385A08-Fn-V2B (with his tag)) GVSDVPRDLEVVAATPTSLLISWSARLKVARYYRITYGETGGNSPVQEFTVPKNVYTATISGLKPGVDYTITVYAVTRFRDYQPISINYRTEIDKPSTSTSTVSDVPRDLEVVAATPTSLLISWRHPHFPTRYYRITYGETGGNSPVQEFTVPLQPPTATISGLKPGVDYTITVYAVTDGRNGRLLSIPISINYRTEIDKPSQHHHHHH — what was its IC50, inhibition of proliferation of Rh41 cells (n=1)?
## Result 26
